Test system: DC2.4 cells
ASSAY_PROCEDURE: In vitro transfection of DC2.4 cells with EGFP mRNA LNP preparation (flow cytometry)
Format: cell-based, mouse
SETTINGS: DC2.4 cells, EGFP mRNA LNP, 200 ng mRNA per well, flow cytometry
MEASURED_PARAMETER: Cell Viability (%)
Supply the numeric figure in %, leaving out any unit text.

// solved cases for Cell Viability follow
COMPOUND	TGT	VALUE_UNITS	Cell Viability
CCCCCCCCCCCCCCC(O)CN(CCOCCOCCOCCN(CCOCCOCCOCCN(CC(O)CCCCCCCCCCCCCC)CC(O)CCCCCCCCCCCCCC)CCN1CCN(CCOCCOCCOCCN(CC(O)CCCCCCCCCCCCCC)CC(O)CCCCCCCCCCCCCC)CC1)CC(O)CCCCCCCCCCCCCC [D-C16]	DC2.4 cells	%	91.1
CCCCCCCCCCC(O)CN(CCOCCOCCOCCN(CCOCCOCCOCCN(CC(O)CCCCCCCCCC)CC(O)CCCCCCCCCC)CCN1CCN(CCOCCOCCOCCN(CC(O)CCCCCCCCCC)CC(O)CCCCCCCCCC)CC1)CC(O)CCCCCCCCCC [D-C12]	DC2.4 cells	%	90.8

What does the data say about its Cell Viability? Entry: CCCCCCCCCCCCCCC(O)CN(CCN1CCN(CCN(CCN(CC(O)CCCCCCCCCCCCCC)CC(O)CCCCCCCCCCCCCC)CCN(CC(O)CCCCCCCCCCCCCC)CC(O)CCCCCCCCCCCCCC)CC1)CC(O)CCCCCCCCCCCCCC (stereo not drawn) [A-C16]
90.0
